Assay: blood and brain drug concentrations in satellite animals
Assay type: in vivo, rat
Settings: CD, rat, blood, intraperitoneal, ENK6 30 mg/kg + ENa7 3 mg/kg; n = 2; read-out: Blood ENK6
Where a name gives a salt, the structure may show the parent alone.
VALUE KIND: concentration at 60 min (ng/mL)

COc1ccc(-n2nnnc2C(F)(F)F)cc1CN[C@H]1CCCN[C@H]1c1ccccc1 [ENK6, dihydrochloride]; 1210

====

Experiment: blood and brain drug concentrations in satellite animals
Assay type: in vivo, rat
Settings: CD, rat, brain, intraperitoneal, ENK6 30 mg/kg + ENa7 3 mg/kg; n = 2; read-out: Brain ENK6
Counter-ions that a name gives are not always drawn.
VALUE KIND: concentration at 60 min (ng/g)

COc1ccc(-n2nnnc2C(F)(F)F)cc1CN[C@H]1CCCN[C@H]1c1ccccc1 [ENK6, dihydrochloride]; 4800
